The reported numbers originate from patent US20050170485A1.

System: culture of Flammulina velutipes strain IFO 30601
Assay: Substrate specificity of the culture (phenol oxidase-like activity, Table 1); further: test concentration or dose not given here
Format: biochemical
Conditions: pH 7.0; determined wavelength per substrate (Table 1)
endpoint: U (activity of the culture on the substrate) (U)
Express it in U; write the number only.

Solved entries (count: 3):
For the compound N[C@@H](Cc1ccc(O)cc1)C(=O)O [L-Tyrosine] , what U (activity of the culture on the substrate) is on record? 0.018

Recorded U (activity of the culture on the substrate) for Nc1ccccc1O [o-Aminophenol] , please? 0.262

Entry COc1cccc(OC)c1O [2,6-Dimethoxyphenol] has what U (activity of the culture on the substrate)? 0.830

Lab note: next compound to report on.
Which U (activity of the culture on the substrate) reading was recorded for the compound Nc1ccc(N)cc1 [p-Phenylenediamine] ? 0.101
